# Tested on: phenylephrine (10 μM) pre-contracted rat isolated prostate
# protocol_text: Relaxation of phenylephrine pre-contracted rat isolated prostate strips (isometric tension)
# test_parameters: 10 μM, 1 hour, phenylephrine 10 μM pre-contracted
# Protocol: The rat isolated prostate tissue was prepared as previously described with modifications^[10]. Briefly, Wistar rats (300-400 g) were killed with pentobarbital sodium (30 mg/kg) and the ventral part of their prostates were quickly excised. […] O2 and 5% CO2. Isometric tension was recorded with a force displacement transducer (UGO BASILE, Model 7004, Italy). […]
The threshold is 70%. Values of relaxation beneath it are tagged yes; values meeting or exceeding it are tagged no.

* CCOc1ccccc1OCCN[C@H](C)Cc1ccc(OC)c(S(N)(=O)=O)c1 [tamsulosin, reference compound] | no
* Nc1nc2c(nc(Sc3ccc(Cl)cc3)n2C2O[C@@H]3COP(=O)(O)O[C@H]3[C@H]2O)c(=O)[nH]1 (stereo in doubt) [8-pCPT-cGMP, reference compound] | yes
* CCCc1nn(C)c2c(=O)[nH]c(-c3cc(S(=O)(=O)N4CCN(C)CC4)ccc3OCC)nc12 [sildenafil, reference compound] | yes
* Cn1c(=O)c2c(ncn2CCN2CCN(c3ccccc3Cl)CC2)n(C)c1=O | no
* CCCOc1ccccc1-c1nc2nn[nH]c2c(=O)[nH]1 [zaprinast, reference compound] | no
* COc1cc2nc(N3CCN(C(=O)C4COc5ccccc5O4)CC3)nc(N)c2cc1OC (stereo not drawn) [doxazosin, reference compound] | no
